Reference source: patent US4919937A

Assay: cutaneous absorption
Assay type: in vivo
Details: skin, topical or ocular; percutaneous; read-out: coefficient of cutaneous absorption
Source text: The daily doses of product to be administered are easy to calculate in terms of the absorption coefficients of the drugs and the doses which it is desired to obtain for 4-hydroxytamoxifen and progesterone at the level of their receptor molecules.
measured_quantity: Fa (%)
Just the number please, in %, no unit attached.

Request: If you can, please state the reported Fa value of CC(=O)[C@H]1CC[C@H]2[C@@H]3CCC4=CC(=O)CC[C@]4(C)[C@H]3CC[C@]12C [progesterone] .
Result: 10

====

Test: tracer doses of tritiated 4-hydroxytamoxifen applied in alcoholic solution 24 hours before excision of cancerous breasts
Format: in vivo
Conditions: human, breast tissue, topical or ocular, read-out: portion of the radioactivity metabolized to unidentified products
measured_quantity: metabolised at 24 h (%)
Write down the numeric answer in % and omit the unit.

Request: Requested field: metabolised at 24 h. Item: CC/C(=C(\c1ccc(O)cc1)c1ccc(OCCN(C)C)cc1)c1ccccc1 [4-hydroxytamoxifen]
Result: 3
